Every entry's value here was drawn from patent US4556715A.

test system: serum and liver lipid levels in rats; experiment: Serum and liver lipid levels and relative liver weight in rats (100 mg/kg, 10 days); assay type: in vivo, Male rats of the Wistar strain; conditions: Table 2; 100 mg/kg p.o. 10 days; Mean ± S.E. (n = 9)
Threshold 5 mg/g liver. Liver lipid levels TG below it: label 1. Liver lipid levels TG at it or above: label 0.

These solved cases illustrate the format of a correct answer.
[
  {
    "compound": "O=C(OCc1ccc(OCc2ccc(Cl)cc2)cc1)c1cccnc1 [KCD-232, 4-(4-chlorobenzyloxy)benzyl nicotinate, reference compound]",
    "target-system": "serum and liver lipid levels in rats",
    "category": "label 1"
  },
  {
    "compound": "O=C(OCc1ccc(OCCCc2ccc(Cl)cc2)cc1)c1cccnc1",
    "target-system": "serum and liver lipid levels in rats",
    "category": "label 1"
  },
  {
    "compound": "O=C(OCCCCc1ccc(OCc2ccc(Cl)cc2)cc1)c1cccnc1",
    "target-system": "serum and liver lipid levels in rats",
    "category": "label 0"
  }
]

Query :: Answer whether the compound O=C(OCc1ccc(OCCCCCCc2ccc(Cl)cc2)cc1)c1cccnc1 has Liver lipid levels TG strictly less than 5 mg/g liver
Result :: label 1

###

test: in vivo; settings: mouse, po, p o, male ICR mice
experimental-endpoint: LD50

[
  {
    "molecule": "O=C(OCc1ccc(OCCCc2ccc(Cl)cc2)cc1)c1cccnc1",
    "experimental-value": "> 4000 mg/kg"
  },
  {
    "molecule": "O=C(OCCCc1ccc(OCc2ccc(Cl)cc2)cc1)c1cccnc1",
    "experimental-value": "> 4000 mg/kg"
  },
  {
    "molecule": "O=C(OCc1ccc(OCc2ccc(Cl)cc2)cc1)c1cccnc1 [KCD-232, 4-(4-chlorobenzyloxy)benzyl nicotinate, reference compound]",
    "experimental-value": "345 mg/kg"
  },
  {
    "molecule": "O=C(OCCCCCCc1ccc(OCc2ccc(Cl)cc2)cc1)c1cccnc1",
    "experimental-value": "> 4000 mg/kg"
  },
  {
    "molecule": "O=C(OCc1ccc(OCCCCCCc2ccc(Cl)cc2)cc1)c1cccnc1",
    "experimental-value": "> 4000 mg/kg"
  }
]

Query :: Complete the entry with LD50 for O=C(OCc1ccc(OCCCCc2ccc(Cl)cc2)cc1)c1cccnc1
Result :: > 4000 mg/kg

###

test system: serum and liver lipid levels in rats; test: Serum and liver lipid levels and relative liver weight in rats (100 mg/kg, 10 days); type: in vivo, Male rats of the Wistar strain; settings: Table 2; 100 mg/kg p.o. 10 days; Mean ± S.E. (n = 9)
# Serum lipid levels TG >= 50 mg/dL gives Satisfied, anything below gives Not satisfied

[
  {
    "molecule": "O=C(OCc1ccc(OCCc2ccc(Cl)cc2)cc1)c1cccnc1 [n1=2, n2=1]",
    "target-system": "serum and liver lipid levels in rats",
    "category": "Satisfied"
  },
  {
    "molecule": "O=C(OCc1ccc(OCc2ccc(Cl)cc2)cc1)c1cccnc1 [KCD-232, 4-(4-chlorobenzyloxy)benzyl nicotinate, reference compound]",
    "target-system": "serum and liver lipid levels in rats",
    "category": "Not satisfied"
  },
  {
    "molecule": "O=C(OCc1ccc(OCCCCCCc2ccc(Cl)cc2)cc1)c1cccnc1 [n1=6, n2=1]",
    "target-system": "serum and liver lipid levels in rats",
    "category": "Not satisfied"
  }
]

Query :: Serum lipid levels TG >= 50 mg/dL for O=C(OCCc1ccc(OCCc2ccc(Cl)cc2)cc1)c1cccnc1 [n1=2, n2=2] ?
Result :: Not satisfied

Query :: Hi team, for O=C(OCc1ccc(OCCCc2ccc(Cl)cc2)cc1)c1cccnc1 [n1=3, n2=1] , is the recorded Serum lipid levels TG at or above 50 mg/dL?
Result :: Not satisfied

Query :: Hello, I need to know if O=C(OCc1ccc(OCCCCc2ccc(Cl)cc2)cc1)c1cccnc1 [n1=4, n2=1] has measured Serum lipid levels TG not below 50 mg/dL. Thanks!
Result :: Not satisfied

Query :: Assess whether reported Serum lipid levels TG for O=C(OCCCCc1ccc(OCCCCc2ccc(Cl)cc2)cc1)c1cccnc1 [n1=4, n2=4] sits at 50 mg/dL or higher.
Result :: Not satisfied

Query :: Confirm if Serum lipid levels TG reported for the molecule O=C(OCCc1ccc(OCc2ccc(Cl)cc2)cc1)c1cccnc1 [n1=1, n2=2] is 50 mg/dL or above.
Result :: Satisfied
